# assay.name: Selectivity index, ratio of CC50 for cytotoxicity against […] H9c2 cells to MIC for antifungal activity against Cryptococcus gattii ATCC 24065
# Format: toxicity, cell-based
# assay.conditions: rat, read-out: Selectivity Index
Below, each entry is listed alongside its reported selectivity ratio.
parameter: selectivity ratio

INSERT INTO measurements (molecule, reported_value) VALUES
  ('C=CCc1ccc(OCC(Cn2ccnc2)OCc2ccc(Cl)cc2)c(OC)c1 (centres undefined)', 1.8),
  ('C=CCc1ccc(OCC(Cn2ccnc2)OC(=O)c2ccc(Cl)cc2)c(OC)c1 (centres undefined)', 1.8),
  ('CCCc1ccc(OCC(Cn2ccnc2)OC(=O)c2ccc(Cl)cc2)c(OC)c1 (centres undefined)', 0.5),
  ('CCCc1ccc(OCC(Cn2ccnc2)OCc2ccc(Cl)cc2)c(OC)c1 (centres undefined)', 2.4);
